Recorded values, source ChEMBL document CHEMBL1921787.

System: Rattus norvegicus
Test: Antihepatotoxic activity against CCl4-induced liver damage in rat assessed as decrease in serum SGOT level at 10 mg/kg, po by calorimetric assay (reference value: 74.52 +/- 0.695 IU/L)
Format: functional
Result Type: Activity (IU/L)
State the answer as a number, implicitly in IU/L.

Per the reported Rattus norvegicus data, c1ccc(C2=NNC(c3ccc4c(c3)OCCO4)C2)cc1 (stereo not given) has Activity of 62.85

Per the reported Rattus norvegicus data, Clc1ccc(C2=NNC(c3ccc4c(c3)OCCO4)C2)cc1 (stereo not given) has Activity of 63.42

Per the reported Rattus norvegicus data, COc1ccc(C2=NNC(c3ccc4c(c3)OCCO4)C2)cc1OC (stereo not given) has Activity of 58.85

Per the reported Rattus norvegicus data, Oc1ccc(C2=NNC(c3ccc4c(c3)OCCO4)C2)c(O)c1 (stereo not given) has Activity of 58.57

Per the reported Rattus norvegicus data, Cc1cccc(C2=NNC(c3ccc4c(c3)OCCO4)C2)c1 (stereo not given) has Activity of 64.85
